- measurement_notes: Kinetic study of slow-release propranolol granules given by mouth to anaesthetised dogs; portal venous and systemic blood concentration
- Format: in vivo
- conditions: dog, portal venous whole blood, oral, 40 mg, portal vein, 60 min; individual dogs 1-4

{"molecule": "CC(C)NCC(O)COc1cccc2ccccc12 (stereo not shown) [Propranolol, propranolol]", "unit_string": "µg/mL", "concentration at 60 min": 5.8}
